Assay: Human HepG2 cell viability assay in 384 well format
Type: toxicity, cell-based
Set-up: dose 125 nL, time 70.5 hour; concentration not given beside the values
Details: HepG2 cells, read-out: Inhibition
outcomeMeasure: cytotoxicity at 70.5 h (%)
Answers are plain numbers, in %.

Completed entries (count: 8):
[
  {
    "molecule": "CC(NC(=O)Nc1nncs1)C(=O)NC1CCCC1 (configuration not stated)",
    "cytotoxicity at 70.5 h [%]": -8.75
  },
  {
    "molecule": "CC(C)S(=O)(=O)Cc1cccc(NC(=O)c2ccc[nH]2)c1",
    "cytotoxicity at 70.5 h [%]": -11
  },
  {
    "molecule": "Cc1nnc(N2CCC(NS(C)(=O)=O)CC2)c(C#N)c1C",
    "cytotoxicity at 70.5 h [%]": -5.64
  },
  {
    "molecule": "CC(C)Cc1nc(CN2CCCC2Cn2cncn2)no1 (configuration not stated)",
    "cytotoxicity at 70.5 h [%]": -7.43
  },
  {
    "molecule": "CCC(C)NC(=O)c1cc(Br)c2c(c1)OCCO2 (configuration not stated)",
    "cytotoxicity at 70.5 h [%]": -1.67
  },
  {
    "molecule": "CS(=O)(=O)c1nccn1Cc1ccc(C(N)=O)cc1",
    "cytotoxicity at 70.5 h [%]": -4.15
  },
  {
    "molecule": "Cc1c(CN2CCCC(C(=O)c3ccccc3)C2)cc(C#N)n1C (configuration not stated)",
    "cytotoxicity at 70.5 h [%]": -4.58
  },
  {
    "molecule": "O=S(=O)(NC[C@H]1C[C@@H]2CCN1C[C@@H]2CN1CCOCC1)c1ccccc1",
    "cytotoxicity at 70.5 h [%]": -0.151
  }
]

Batch of 4 molecules: report cytotoxicity at 70.5 h for each.
1. CCN(CC1CCCO1)S(=O)(=O)c1cc(NC(C)=O)ccc1C (configuration not stated)
2. O=S(=O)(NCc1ccccc1)Nc1ccc(-n2ccnc2)cc1
3. CN(C)c1ccc(CN(CCCn2ccnc2)Cc2c[nH]cn2)cc1
4. CS(=O)(=O)N1CCC(Cc2cnc(Br)cn2)CC1

Resp:
6.44
23.3
-13.5
-5.81

----------
Test: Human HepG2 cell viability assay in 384 well format
Type: toxicity, cell-based
Set-up: dose 125 nL, time 70.5 hour; concentration not given beside the values
Conditions: HepG2 cells, read-out: Inhibition
Provide the reported cytotoxicity at 70.5 h of each item.
Answers are plain numbers, in %.

[
  {
    "compound": "O=S(=O)(NCC(O)c1ccc2c(c1)CCO2)c1ccccc1F (stereo not given)",
    "numericResult": -13.3
  }
]

Batch: cytotoxicity at 70.5 h for all items listed.
1. Cc1nc(NCCSc2cnn[nH]2)c2cccnc2n1
2. Cc1cc(NCc2csc(-c3ccsc3)n2)no1
3. CN(CCc1ccncc1)C1CCCN(Cc2noc(C3CC3)n2)C1 (stereo not given)
4. CC(C)NC(=O)Nc1ccc(CS(=O)(=O)C(C)(C)C)cc1
5. CSCc1cccc(C(=O)N2CCN(CC(C)O)CC2)c1 (stereo not given)
6. CC1CN(C(=O)c2cc(=O)[nH]c3ccc(F)cc23)CCO1 (stereo not given)
7. O=C(Nc1ccc(F)cc1)C1CNCCN1C(=O)CSc1ccncc1 (stereo not given)
8. Cc1ccccc1C(=O)N1CCC2(CCCN2CCN(C)C)CC1

Resp:
1. 5.69
2. 0.878
3. -2.71
4. -12.3
5. -14.6
6. 19.1
7. 28.9
8. -9.86

I need cytotoxicity at 70.5 h for every entry listed below, if you could help.
1. CC(=O)NC(c1cc(F)ccc1F)C1CC1 (stereo not given)
2. CC(C)c1nc(O)c2nnn(C[C@H]3CCCN(Cc4cccs4)C3)c2n1

Resp:
1. -3.82
2. 32.6

For each of the compounds below, note its cytotoxicity at 70.5 h.
1. Cc1ccc(NC(=O)c2cnc(N3CCN(C)CC3)nc2C)cc1C
2. CN1N=C(c2nc(Cc3cccc(Br)c3)no2)CCC1=O
3. CCOc1ccnc(NCc2nc(C)cc(=O)[nH]2)n1
4. O=C(NCCCN1CCc2ccccc2C1)c1ccccc1Cl
5. N#Cc1ccc(OC2CCN(C(=O)c3ccc4c(c3)OCO4)CC2)nc1
6. Cc1occc(=O)c1OCc1noc(C(=O)NCC2CC2)n1

Resp:
1. -4.49
2. -2.2
3. -6.71
4. -7.27
5. 17.3
6. -16.6

Hey, quick one: what's cytotoxicity at 70.5 h for each of these?
1. Cc1ncc(CN2CCCC2c2ccc(C(=O)NCc3ccoc3)s2)s1 (stereo not given)
2. COCC(=O)N1CCCCC1c1nccc(C)n1 (stereo not given)

Resp:
1: -0.861; 2: 3.46
